Target Under Test: Dual specificity tyrosine-phosphorylation-regulated kinase 1A (Homo sapiens, UniProt Q13627)
Assay Summary: DYRK1A Inhibition Assay
pIC50: −log10 of the molar value.
Attribute Measured: pIC50

Solved cases (3 shown):
Molecule: CS(=O)(=O)N1CCC[C@@H](n2cnc3ccc(-c4ccncc4)cc32)C1 [US20250099442, Compound I.22]
Reported Measurement: 6.00 to 7.00
--
Molecule: C[C@@H]1CC(C(=O)Nc2cn3cc(-c4ccncc4)ccc3n2)C[C@H](C)N1C (some centres not stated) [US20250099442, Compound I.66]
Reported Measurement: 7.00 to 8.00
--
Molecule: Cc1cc(-c2cnn3cc(-c4ccc5cnccc5c4)n(C)c(=O)c23)ccn1 [US20250099442, Compound I.80]
Reported Measurement: 6.00 to 7.00

Output pIC50 of COc1cc(-c2ccc3nc(NC(=O)C4CN(C)C4)sc3c2)ccn1 [US20250099442, Compound I.46]
7.00 to 8.00

Output pIC50 of O=C(O)c1ccc(-c2cnc3n2CCN(c2cccnc2)C3)cc1 [US20250099442, Compound I.78]
6.00 to 7.00

Output pIC50 of CCOc1cc(-c2ccc3nc(NC(=O)[C@H]4CCCN(C)C4)sc3c2)ccn1 [US20250099442, Compound I.61]
6.00 to 7.00

Output pIC50 of c1cc(-c2c[nH]c3cnccc23)ccn1 [US20250099442, Compound I.1]
7.00 to 8.00
